# measurement-description: Metabolic stability, pooled human liver microsome incubations
# condition-parameters: pHLM, scaling factor 32 mg microsomal protein per gram liver
reported-endpoint: Hepatic extraction ratio, EH

INSERT INTO measurements (compound, endpoint_result) VALUES
  ('COC(=O)[C@@H](NC(=O)c1nn(CCCCF)c2ccccc12)C(C)(C)C [(S)-4F-MDMB-BINACA (4)]', '0.25 ± 0.034'),
  ('C=CCCCn1nc(C(=O)N[C@H](C(=O)OC)C(C)(C)C)c2ccccc21 [(S)-MDMB-4en-PINACA (5)]', '0.08 ± 0.012'),
  ('COC(=O)[C@@H](NC(=O)c1cn(CCCCCF)c2ccccc12)C(C)(C)C [(S)-5F-MDMB-PICA (3)]', '0.27 ± 0.034'),
  ('C=CCCCn1cc(C(=O)N[C@@H](C(=O)OC)C(C)C)c2ccccc21 [(R)-AMB-4en-PICA (7)]', '0.44 ± 0.047'),
  ('C=CCCCn1cc(C(=O)N[C@H](C(=O)OC)C(C)C)c2ccccc21 [(S)-AMB-4en-PICA (7)]', '0.33 ± 0.038'),
  ('COC(=O)[C@@H](NC(=O)c1nn(CCCCCF)c2ccccc12)C(C)C [(S)-5F-AMB-PINACA (10)]', '0.77 ± 0.013'),
  ('C=CCCCn1nc(C(=O)N[C@@H](C(=O)OC)C(C)(C)C)c2ccccc21 [(R)-MDMB-4en-PINACA (5)]', '0.16 ± 0.014'),
  ('CC(C)[C@H](NC(=O)c1nn(Cc2ccc(F)cc2)c2ccccc12)C(N)=O [(S)-AB-FUBINACA (8)]', '0.01 ± 0.003');

Input line: So what does the record say about Hepatic extraction ratio, EH for COC(=O)[C@H](NC(=O)c1nn(CCCCCF)c2ccccc12)C(C)(C)C [(R)-5F-MDMB-PINACA (2)] ?
Output line: 0.22 ± 0.023

Input line: Here is the next compound: C=CCCCn1cc(C(=O)N[C@H](C(=O)OC)C(C)(C)C)c2ccccc21 [(S)-MDMB-4en-PICA (12)]
Output line: 0.18 ± 0.022

* * *

# measurement-description: Short-term plasma stability with and without esterase inhibitors
# condition-parameters: human, plasma, pH 7.4, Parent Compound Remaining (%), No Esterase Inhibitors, 5 h, 37 °C, pH 7.4, pooled human plasma
reported-endpoint: remaining at 5 h (%)
Numbers only; they are read as %.

Input line: Entry COC(=O)[C@@H](NC(=O)c1nn(Cc2ccc(F)cc2)c2ccccc12)C(C)C [(S)-AMB-FUBINACA (1)] : reported remaining at 5 h = ?
Output line: 86

* * *

# measurement-description: Metabolic stability, pooled human liver microsome incubations
# condition-parameters: from pHLM CLint, well-stirred model with plasma fu, Q 21 mL min^−1 kg^−1
reported-endpoint: Predicted In Vivo Hepatic Clearance, CLH (mL/min/kg)
The reply should contain only the number, in mL/min/kg.

Observe how each entry below is paired with its result.
INSERT INTO results (compound, value_units, endpoint_result) VALUES
  ('COC(=O)[C@@H](NC(=O)c1nn(Cc2ccc(F)cc2)c2ccccc12)C(C)(C)C [(S)-MDMB-FUBINACA (6)]', 'mL/min/kg', 0.87),
  ('C=CCCCn1nc(C(=O)N[C@@H](C(=O)OC)C(C)(C)C)c2ccccc21 [(R)-MDMB-4en-PINACA (5)]', 'mL/min/kg', 4.94),
  ('C=CCCCn1cc(C(=O)N[C@@H](C(=O)OC)C(C)(C)C)c2ccccc21 [(R)-MDMB-4en-PICA (12)]', 'mL/min/kg', 9.81);

We next turn to a different compound, shown below.
Input line: Name the recorded Predicted In Vivo Hepatic Clearance, CLH for COC(=O)[C@@H](NC(=O)c1cn(CCCCCF)c2ccccc12)C(C)(C)C [(S)-5F-MDMB-PICA (3)] .
Output line: 8.01

Reference source: paper PMC7961380
